- System: HEY ovarian cancer cells
- MEASUREMENT_NOTES: MTT cytotoxicity assay, HEY
- Format: cell-based, human
- RUN_CONDITIONS: Homo sapiens, read-out: 50% Cytotoxic concentration (IC50)
ATTRIBUTE_MEASURED: pIC50
Note: pIC50 values are expressed as the negative base-10 logarithm of concentration in M.

Form field pIC50 for item `Cc1cccc(C(O)(C(=O)NNC(=O)/C(O)=C/C(=O)c2ccccc2)c2cccc(C)c2)c1` on HEY ovarian cancer cells: 5.52

---

- Tested on: HCT 116 p53^+/+ colon cancer cells
- MEASUREMENT_NOTES: MTT cytotoxicity assay, HCT 116 p53+/+
- Type: cell-based, human
- RUN_CONDITIONS: Homo sapiens, 72 h
ATTRIBUTE_MEASURED: IC50

The reported value for NC(CC(=O)NNc1nc2ccccc2n2cccc12)c1ccc(C(F)(F)F)cc1 (stereo not shown) in terms of IC50 is > 20 µM

The reported value for `O=C(NNc1nc2ccccc2n2cccc12)c1c[nH]c2ccccc12` in terms of IC50 is > 20 µM

The reported value for `O=C(NNc1nc2ccccc2n2cccc12)c1ccccc1F` in terms of IC50 is 8 µM

The reported value for N#Cc1ccc(C(N)CC(=O)NNc2nc3ccccc3n3cccc23)cc1 (stereo not shown) in terms of IC50 is > 20 µM

The reported value for NC(CC(=O)NNc1nc2ccccc2n2cccc12)c1ccc(Cl)cc1 (stereo not shown) in terms of IC50 is 0.4 µM

The reported value for `NCCC(=O)NNc1nc2ccccc2n2cccc12` in terms of IC50 is > 20 µM

The reported value for COc1ccc(C(N)CC(=O)NNc2nc3ccccc3n3cccc23)cc1 (stereo not shown) in terms of IC50 is > 20 µM

The reported value for O=C(NNc1nc2ccccc2n2cccc12)C1CSCN1 (stereo not shown) in terms of IC50 is 15 µM

The reported value for `O=C(NNc1nc2ccccc2n2cccc12)c1ccc2[nH]ccc2c1` in terms of IC50 is > 20 µM

The reported value for `O=C(NNc1nc2ccccc2n2cccc12)c1cc2ccccc2[nH]1` in terms of IC50 is > 20 µM

The reported value for `O=C(NNc1nc2ccccc2n2cccc12)c1ccc2cc[nH]c2c1` in terms of IC50 is > 20 µM

The reported value for `O=C(NNc1nc2cc(F)ccc2n2cccc12)c1cnccn1` in terms of IC50 is 0.6 µM

The reported value for NC(CC(=O)NNc1nc2ccccc2n2cccc12)c1ccccc1Cl (stereo not shown) in terms of IC50 is > 20 µM

---

- Test system: MDA-MB-435 cells
- MEASUREMENT_NOTES: MTT assay, continuous drug exposure for 48 hours (Table 3)
- Format: cell-based, human
- RUN_CONDITIONS: Homo sapiens, MDA-MB-435
label 1 if CC50 is below 4 µM. label 0 if not; exact matches included in label 0.

INPUT: Regarding `CC(=O)O[C@H]1C(=O)[C@@]2(C)[C@H]([C@H](OC(=O)c3ccccc3)[C@]3(O)C[C@H](OC(=O)[C@H](O)[C@@H](NC(=O)c4ccccc4)c4ccccc4)C(C)=C1C3(C)C)[C@]1(OC(C)=O)CO[C@@H]1C[C@@H]2O` , kindly confirm whether its CC50 is beneath 4 µM.
OUTPUT: label 1

INPUT: Regarding CC[C@@]1(O)C(=O)OCc2c1cc1n(c2=O)Cc2cc3ccccc3nc2-1 [CPT, Camptothecin, reference compound] , kindly confirm whether its CC50 is beneath 4 µM.
OUTPUT: label 1

INPUT: Regarding `O=C1c2c(O)ccc(O)c2C(=O)c2c(NCCNCCO)ccc(NCCNCCO)c21` , kindly confirm whether its CC50 is beneath 4 µM.
OUTPUT: label 0

INPUT: Regarding COc1cc([C@@H]2c3cc4c(cc3[C@@H](O[C@@H]3O[C@@H]5CO[C@@H](C)O[C@H]5[C@H](O)[C@H]3O)[C@H]3COC(=O)[C@H]23)OCO4)cc(OC)c1O [Etoposide] , kindly confirm whether its CC50 is beneath 4 µM.
OUTPUT: label 0

INPUT: Regarding `O=c1[nH]cc(F)c(=O)[nH]1` , kindly confirm whether its CC50 is beneath 4 µM.
OUTPUT: label 0
